systemUnderTest: UniProt:Q9NR97
Sequence (Q9NR97 27-1041): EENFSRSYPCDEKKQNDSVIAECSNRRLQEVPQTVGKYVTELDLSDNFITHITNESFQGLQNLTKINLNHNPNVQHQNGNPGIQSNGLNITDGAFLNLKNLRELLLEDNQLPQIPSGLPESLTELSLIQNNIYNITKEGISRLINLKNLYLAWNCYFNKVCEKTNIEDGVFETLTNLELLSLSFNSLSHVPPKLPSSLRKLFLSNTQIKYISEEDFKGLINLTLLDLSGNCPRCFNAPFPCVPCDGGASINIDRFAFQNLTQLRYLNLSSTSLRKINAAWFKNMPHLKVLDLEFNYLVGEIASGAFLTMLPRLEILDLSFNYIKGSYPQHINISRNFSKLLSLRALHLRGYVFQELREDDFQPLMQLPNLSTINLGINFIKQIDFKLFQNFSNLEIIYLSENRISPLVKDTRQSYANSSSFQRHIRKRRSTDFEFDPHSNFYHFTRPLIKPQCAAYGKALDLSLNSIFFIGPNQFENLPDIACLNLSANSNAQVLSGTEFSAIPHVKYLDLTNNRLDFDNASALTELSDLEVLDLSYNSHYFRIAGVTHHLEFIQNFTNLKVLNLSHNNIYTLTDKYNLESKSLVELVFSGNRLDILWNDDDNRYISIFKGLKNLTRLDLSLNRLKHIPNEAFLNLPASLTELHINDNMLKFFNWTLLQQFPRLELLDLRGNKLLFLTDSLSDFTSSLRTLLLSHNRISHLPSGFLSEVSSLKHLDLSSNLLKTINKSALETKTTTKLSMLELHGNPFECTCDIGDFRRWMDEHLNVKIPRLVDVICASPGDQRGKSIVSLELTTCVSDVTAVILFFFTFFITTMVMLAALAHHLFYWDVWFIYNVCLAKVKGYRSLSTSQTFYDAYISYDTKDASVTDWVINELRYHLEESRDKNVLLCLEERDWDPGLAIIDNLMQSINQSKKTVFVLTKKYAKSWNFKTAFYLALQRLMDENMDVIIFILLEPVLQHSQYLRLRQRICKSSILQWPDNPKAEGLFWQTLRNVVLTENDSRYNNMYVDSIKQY
assayExplanation: TLR8 inhibition reporter assay (HEK-Blue cells, secreted embryonic alkaline phosphatase reporter)
cond: HEK-Blue cells overexpressing human TLR8, stimulated with R848 15.9 μM; read-out: TLR 8 IC50
pIC50: −log10 of the molar value.
quantity: pIC50

QUERY: Which pIC50 reading was recorded for the molecule Cc1cc(C2CCN(C3CCN(CC(C)C)CC3)CC2)cc2[nH]c(-c3ccc4c(c3)OCCO4)nc12 [Example 62] ?
RESULT: < 4.30

QUERY: Which pIC50 reading was recorded for the molecule Cc1cc(C2CCN(C3CCN(C(C)C)CC3)CC2)cc2c1nc(-c1ccc(S(C)(=O)=O)cc1)n2C [Example 22] ?
RESULT: < 4.30

QUERY: Which pIC50 reading was recorded for the molecule Cn1c(-c2ccc(S(C)(=O)=O)cc2)nc2cc(F)c(C3CCN(C4CC5CCC(C4)N5C4COC4)CC3)cc21 (single isomer, unassigned) [Example 235] ?
RESULT: < 4.30

QUERY: Which pIC50 reading was recorded for the molecule COc1ccc(-c2nc3ccc(C4CCN(C5CCN(CC(C)C)CC5)CC4)cc3n2C)cc1OC [Example 26] ?
RESULT: < 4.30

QUERY: Which pIC50 reading was recorded for the molecule Cc1cc(-c2cc(F)c(CN3CCC(N4CCCC4)CC3)c(F)c2)cc2c1nc(-c1ccc(S(C)(=O)=O)cc1)n2C [Example 391] ?
RESULT: 4.93

QUERY: Which pIC50 reading was recorded for the molecule Cc1cc(-c2ccc(CN3CCC(N4CCC4)CC3)c(F)c2)cc2c1nc(-c1ccc(S(C)(=O)=O)cc1)n2C [Example 403] ?
RESULT: 4.80

QUERY: Which pIC50 reading was recorded for the molecule Cc1cc(C2CCN(C3CCN(CC(C)C)CC3)CC2)cc2[nH]c(-c3ccnc4ccccc34)nc12 [Example 59] ?
RESULT: < 4.30
